Listing of entries alongside the reported IC50.
System: nucleoprotein factor NF-κB (p65)-DNA binding activity
Experiment: NF-κB (p65)-DNA binding activity (EMSA)
Type: cell-based
Conditions: PANC-1 cells; EMSA, nuclear protein extracts, 48 h; read-out: Effective concentration for 50% inhibition of binding of nucleoprotein factor NF-kB (p65) and DNA
readout_type: IC50

[[record]]
compound = "CCNC(=O)CC[C@@H](NC(=O)c1cc2cc(Cl)cc(Cl)c2oc1=O)C(=O)OCC"
readout_type = "IC50"
recorded_measurement = "< 70 µM"

[[record]]
compound = "CC[C@]1(O)C[C@H]2CN(CCc3c([nH]c4ccccc34)[C@@](C(=O)OC)(c3cc4c(cc3OC)N(C=O)[C@H]3[C@@](O)(C(=O)OC)[C@H](OC(C)=O)[C@]5(CC)C=CCN6CC[C@]43[C@@H]65)C2)C1 [Vincristine, reference compound]"
readout_type = "IC50"
recorded_measurement = "> 70 µM"

[[record]]
compound = "CCNC(=O)CC[C@@H](NC(=O)c1cc2cc(Br)cc(Br)c2oc1=O)C(=O)OCC"
readout_type = "IC50"
recorded_measurement = "< 70 µM"


----------
Test system: mouse melanoma cells B16
Experiment: MTT growth inhibition, B16 cells
Assay type: cell-based
Conditions: Mus musculus, 72 h after treatment, read-out: Drug concentration (IC50) at which 50% cancer cells survived
pIC50: −log10 of the molar value.
readout_type: pIC50

[[record]]
molecule = "CCNC(=O)CC[C@@H](NC(=O)c1cc2cc(Br)cc(Br)c2oc1=O)C(=O)OCC"
qualifier_symbol = "="
recorded_measurement = 3.84

[[record]]
molecule = "O=C(O)c1cc2ccccc2oc1=O"
qualifier_symbol = "<"
recorded_measurement = 3.15

[[record]]
molecule = "CCNC(=O)CCC(NC(=O)c1cc2ccccc2oc1=O)C(=O)OC (stereo not shown)"
qualifier_symbol = "="
recorded_measurement = 3.84

[[record]]
molecule = "CCNC(=O)CCC(NC(=O)c1cc2cc(F)ccc2oc1=O)C(=O)OCC (stereo in doubt)"
qualifier_symbol = "="
recorded_measurement = 3.64

[[record]]
molecule = "CCNC(=O)CC[C@@H](NC(=O)c1cc2cc(Br)ccc2oc1=O)C(=O)OCC"
qualifier_symbol = "="
recorded_measurement = 3.92

[[record]]
molecule = "O=C(O)c1cc2cc(F)ccc2oc1=O"
qualifier_symbol = "="
recorded_measurement = 3.22

[[record]]
molecule = "O=C(O)c1cc2cc(Br)ccc2oc1=O"
qualifier_symbol = "="
recorded_measurement = 3.22

[[record]]
molecule = "CCNC(=O)CC[C@@H](NC(=O)c1cc2cc(Cl)cc(Cl)c2oc1=O)C(=O)OCC"
qualifier_symbol = "="
recorded_measurement = 3.90

[[record]]
molecule = "CCNC(=O)CC[C@H](N)C(=O)OC"
qualifier_symbol = "="
recorded_measurement = 3.35

[[record]]
molecule = "O=C(O)c1cc2cc(Br)cc(Br)c2oc1=O"
qualifier_symbol = "="
recorded_measurement = 3.34


----------
Test system: human breast cancer cells MDA-MB231 xenograft
Experiment: In-vivo growth of MDA-MB231 xenografts in nude mice
Set-up: species or system BALB/c nude mice
Settings: Mus musculus, MDA-MB-231, ip; MB-231 xenograft; 60 mg/kg intraperitoneal once a day; vs DMSO solvent control; read-out: Curative effect (inhibition rate %) of tumor weight
readout_type: inhibition in vivo at 60 mg/kg (%)

[[record]]
compound = "CCNC(=O)CC[C@@H](NC(=O)c1cc2cc(Br)cc(Br)c2oc1=O)C(=O)OCC"
recorded_measurement = 55.1

[[record]]
compound = "CCNC(=O)CC[C@H](N)C(=O)OC"
recorded_measurement = 31.1

[[record]]
compound = "CCNC(=O)CC[C@@H](NC(=O)c1cc2cc(Cl)cc(Cl)c2oc1=O)C(=O)OCC"
recorded_measurement = 59.1

[[record]]
compound = "CCNC(=O)CCC(NC(=O)c1cc2ccccc2oc1=O)C(=O)OC (stereo not shown)"
recorded_measurement = 50.1

[[record]]
compound = "CCNC(=O)CCC(NC(=O)c1cc2cc(F)ccc2oc1=O)C(=O)OCC (stereo in doubt)"
recorded_measurement = 50.9

[[record]]
compound = "CCNC(=O)CC[C@@H](NC(=O)c1cc2cc(Br)ccc2oc1=O)C(=O)OCC"
recorded_measurement = 53.1

[[record]]
compound = "CCNC(=O)CCC(NC(=O)c1cc2ccccc2oc1=O)C(=O)OCC (stereo not shown)"
recorded_measurement = 59.1

[[record]]
compound = "CCNC(=O)CCC(NC(=O)c1cc2cc([N+](=O)[O-])ccc2oc1=O)C(=O)OCC (stereo in doubt)"
recorded_measurement = 52.6

[[record]]
compound = "CCNC(=O)CC[C@H](N)C(=O)OCC"
recorded_measurement = 44.5

[[record]]
compound = "CCNC(=O)CC[C@@H](NC(=O)c1cc2cc(Cl)ccc2oc1=O)C(=O)OCC"
recorded_measurement = 54.1

